molecular target: Epidermal growth factor receptor (Homo sapiens, UniProt P00533)
Sequence (P00533 whole entry): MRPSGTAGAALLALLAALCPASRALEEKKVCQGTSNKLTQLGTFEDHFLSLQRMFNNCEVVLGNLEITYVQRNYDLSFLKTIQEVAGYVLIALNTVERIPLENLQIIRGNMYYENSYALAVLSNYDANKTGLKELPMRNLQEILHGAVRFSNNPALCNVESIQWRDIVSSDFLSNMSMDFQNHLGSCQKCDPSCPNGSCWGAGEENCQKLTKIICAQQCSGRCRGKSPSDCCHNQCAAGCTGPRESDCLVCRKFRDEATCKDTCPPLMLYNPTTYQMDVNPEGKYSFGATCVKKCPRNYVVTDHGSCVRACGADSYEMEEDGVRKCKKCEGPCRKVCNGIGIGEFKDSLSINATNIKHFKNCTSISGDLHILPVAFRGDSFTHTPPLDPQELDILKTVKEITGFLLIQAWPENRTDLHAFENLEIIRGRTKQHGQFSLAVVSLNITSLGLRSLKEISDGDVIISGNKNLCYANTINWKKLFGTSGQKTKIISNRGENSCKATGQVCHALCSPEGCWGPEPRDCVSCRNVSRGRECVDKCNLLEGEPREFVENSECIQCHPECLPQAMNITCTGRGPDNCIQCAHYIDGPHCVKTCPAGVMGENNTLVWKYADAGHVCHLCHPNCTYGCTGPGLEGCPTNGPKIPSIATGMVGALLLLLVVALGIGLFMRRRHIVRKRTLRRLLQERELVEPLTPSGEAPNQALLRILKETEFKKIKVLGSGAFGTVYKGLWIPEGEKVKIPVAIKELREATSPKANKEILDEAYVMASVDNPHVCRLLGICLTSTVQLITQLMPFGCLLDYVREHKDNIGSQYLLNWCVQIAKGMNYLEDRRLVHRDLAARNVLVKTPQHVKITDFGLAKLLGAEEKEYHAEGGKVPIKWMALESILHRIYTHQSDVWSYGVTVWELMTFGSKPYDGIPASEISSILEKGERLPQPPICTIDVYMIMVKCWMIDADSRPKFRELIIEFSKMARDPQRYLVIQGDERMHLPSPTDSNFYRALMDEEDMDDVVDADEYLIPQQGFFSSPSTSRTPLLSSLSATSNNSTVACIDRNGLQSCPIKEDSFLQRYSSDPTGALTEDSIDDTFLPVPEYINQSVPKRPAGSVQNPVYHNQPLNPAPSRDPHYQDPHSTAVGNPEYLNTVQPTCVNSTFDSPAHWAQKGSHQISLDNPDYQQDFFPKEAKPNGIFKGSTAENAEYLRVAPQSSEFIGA
RESULT TYPE: IC50 (nM)
Report the value in nM with no unit label.

### Prompt # query: IC50 of entry COc1cc2ncnc(Nc3ccc(F)c(Cl)c3)c2cc1OCCCN1CC[Se]CC1
### Response 25.3
